# tested_target: Rho-associated protein kinase 2 (Homo sapiens)
# Sequence (O75116 whole entry): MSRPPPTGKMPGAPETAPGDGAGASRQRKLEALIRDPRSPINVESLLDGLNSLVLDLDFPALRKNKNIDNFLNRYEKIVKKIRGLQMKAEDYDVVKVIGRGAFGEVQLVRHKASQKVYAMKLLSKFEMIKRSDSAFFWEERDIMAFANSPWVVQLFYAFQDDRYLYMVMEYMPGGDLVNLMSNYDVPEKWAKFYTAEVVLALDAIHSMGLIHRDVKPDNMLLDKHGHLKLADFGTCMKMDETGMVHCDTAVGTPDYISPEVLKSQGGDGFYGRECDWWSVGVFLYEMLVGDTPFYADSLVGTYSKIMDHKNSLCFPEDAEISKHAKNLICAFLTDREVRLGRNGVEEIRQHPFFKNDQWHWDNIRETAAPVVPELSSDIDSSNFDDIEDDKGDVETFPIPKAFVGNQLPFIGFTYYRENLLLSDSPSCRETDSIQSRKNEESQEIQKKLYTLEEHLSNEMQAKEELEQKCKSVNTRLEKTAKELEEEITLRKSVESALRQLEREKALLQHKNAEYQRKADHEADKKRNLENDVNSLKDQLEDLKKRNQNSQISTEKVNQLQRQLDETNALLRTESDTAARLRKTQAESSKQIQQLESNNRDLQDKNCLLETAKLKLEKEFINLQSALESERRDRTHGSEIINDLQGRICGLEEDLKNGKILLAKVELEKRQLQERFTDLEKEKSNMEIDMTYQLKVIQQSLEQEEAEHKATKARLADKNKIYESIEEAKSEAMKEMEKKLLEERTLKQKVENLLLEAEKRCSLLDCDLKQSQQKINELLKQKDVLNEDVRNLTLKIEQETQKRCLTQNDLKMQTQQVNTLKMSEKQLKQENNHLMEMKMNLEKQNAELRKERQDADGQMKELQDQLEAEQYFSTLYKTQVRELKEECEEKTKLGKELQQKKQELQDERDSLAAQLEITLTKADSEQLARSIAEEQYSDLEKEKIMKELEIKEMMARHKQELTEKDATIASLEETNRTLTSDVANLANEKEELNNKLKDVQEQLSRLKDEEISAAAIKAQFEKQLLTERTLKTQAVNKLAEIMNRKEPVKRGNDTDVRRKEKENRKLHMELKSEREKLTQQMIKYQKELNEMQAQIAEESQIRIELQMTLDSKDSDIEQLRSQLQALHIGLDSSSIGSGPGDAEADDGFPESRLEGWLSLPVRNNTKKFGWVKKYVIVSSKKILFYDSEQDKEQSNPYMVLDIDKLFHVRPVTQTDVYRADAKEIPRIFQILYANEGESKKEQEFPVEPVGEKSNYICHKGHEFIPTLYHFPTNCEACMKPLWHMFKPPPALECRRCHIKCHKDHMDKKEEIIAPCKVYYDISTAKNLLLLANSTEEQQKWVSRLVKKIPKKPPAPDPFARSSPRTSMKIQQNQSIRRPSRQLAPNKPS
quantity_measured: IC50 (nM)
One number for each entry, in nM.

Task: Looking for the measured IC50 of CCC(O)CNCc1ccnc2ccc(OC)cc12 (stereo unspecified) , can you help?
Result: 8.02
